Provenance of the data: patent US8937077B2

- Target Or System: Jak1 (Homo sapiens)
- Construct: using a recombinant purified GST-tagged catalytic domain for each enzyme; GST; purchased Invitrogen M4290
- Sequence (P23458 875-1153 limits assumed): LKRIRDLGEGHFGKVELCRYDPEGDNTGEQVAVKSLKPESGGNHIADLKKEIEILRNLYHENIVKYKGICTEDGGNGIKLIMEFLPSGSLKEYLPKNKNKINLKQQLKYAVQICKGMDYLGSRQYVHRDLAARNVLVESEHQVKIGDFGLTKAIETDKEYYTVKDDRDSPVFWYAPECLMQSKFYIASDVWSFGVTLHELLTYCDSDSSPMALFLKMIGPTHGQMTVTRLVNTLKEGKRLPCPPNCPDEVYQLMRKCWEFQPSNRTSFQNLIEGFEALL
- Assay Method Text: Jak Biochemical HTRF Assay (Jak1)
- Measurement Setup: IC50 class, recombinant GST-tagged catalytic domain, read-out: Jak1 activity
pIC50: −log10 of the molar value.
Quantity Name: pIC50

Observe how each entry below is paired with its result.
compound=O=C(OCCc1cccc2ccccc12)N1CCC[C@@H]2[C@H]1CCN2c1ncnc2[nH]ccc12 target_or_system="Jak1 (Homo sapiens)" meas_value="6.00 to 7.00"
compound="CC(Cc1ccccc1)C(=O)N1CCC[C@@H]2[C@H]1CCN2c1ncnc2[nH]ccc12 (mixture of isomers) [Example 29-56]" target_or_system="Jak1 (Homo sapiens)" meas_value="7.00 to 8.00"
compound=O=S(=O)(c1ccco1)N1CCC[C@@H]2[C@H]1CCN2c1ncnc2[nH]ccc12 target_or_system="Jak1 (Homo sapiens)" meas_value="7.00 to 8.00"

Proceeding to the next compound to report its pIC50.
Prompt: Give recorded pIC50. O=C(OCc1cccnc1)N1CCCC2C1CCN2c1ncnc2[nH]ccc12 (stereo not shown)
Completion: 7.00 to 8.00
